EXPERIMENTAL_TARGET: GSK3B (Homo sapiens)
Sequence (P49841 whole entry): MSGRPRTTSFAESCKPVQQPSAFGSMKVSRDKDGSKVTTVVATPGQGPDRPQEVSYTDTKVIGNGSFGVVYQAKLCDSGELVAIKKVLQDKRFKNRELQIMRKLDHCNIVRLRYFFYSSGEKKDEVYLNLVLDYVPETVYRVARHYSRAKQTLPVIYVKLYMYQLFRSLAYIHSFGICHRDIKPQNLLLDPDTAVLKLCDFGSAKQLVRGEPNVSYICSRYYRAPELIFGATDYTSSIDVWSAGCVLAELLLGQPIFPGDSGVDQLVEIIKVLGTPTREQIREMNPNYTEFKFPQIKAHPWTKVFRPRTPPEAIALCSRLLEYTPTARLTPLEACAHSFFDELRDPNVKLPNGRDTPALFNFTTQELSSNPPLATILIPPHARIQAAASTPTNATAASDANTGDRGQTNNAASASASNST
METHOD: In vitro enzymatic activity assay, GSK3β
Type: biochemical
Set-up: Full length human GSK3α or GSK3B expressed as N-terminal GST fusion proteins; GST (N); purchased Carna Biosciences (Japan); host or cells: baculovirus host
CONDITION_CONTEXT: 1.0 mM ATP, 1.0 μM peptide substrate, 120 min, 25° C, read-out: Enzyme GSK3β (IC50)
Procedure: Full length human GSK3α or GSK3B expressed as N-terminal GST fusion proteins in baculovirus host were purchased from Carna Biosciences (Japan). The kinase was pre-incubated with ATP (adenosine-5′-triphosphate) for 45 min, then incubated with tested compounds for another 45 min in assay buffer that contains 100 mM HEPES (N-2-hydroxyethylpiperazine-N′-2-ethanesulfonic acid), pH 7.5, 10 mM MgCl2, 1.0 mM DTT, and 0.015% Briji-35. […] IC50 value was determined from the 4-parameter logistic curve fitting.
Catalogue of IC50 readings, one per entry.

| CHEMICAL_STRUCTURE | IC50 [nM] |
| --- | --- |
| Nc1ncn(-c2c(Cl)cc(C(F)F)cc2Cl)c(=O)c1C(=O)Nc1cncc([C@@H]2CCCCN2)c1 | 323 |
| Nc1ncn(-c2c(Cl)cccc2Cl)c(=O)c1C(=O)Nc1cncc([C@@H]2CCCN2)c1 | 418 |
| COCc1cc(C)c(-n2cnc(N)c(C(=O)Nc3cncc(C4(N)CCC4)c3)c2=O)c(C)c1 | 1320 |
| Cc1cc(OC(F)(F)F)cc(C)c1-n1cnc(N)c(C(=O)Nc2cncc([C@H]3CCCCN3)c2)c1=O | 568 |
